- TEST TARGET: huNav1.7α + β1 (human)
- MEASUREMENT NOTES: cell-based or functional assay
MEASURED PARAMETER: Qpatch IC50 (nM)

Answered cases to consult:
{"BINDER": "F010301162 (VHH) VHH: EVQLVESGGGLVQPGGSLRLSCAASGMLFNRNTQGWYRQAPGKQRELVAFIFSGGWTNYNDSVKGRFTISRDNAKRTMYLQMNSLKPEDSAIYYCSLSRYQGQGTLVTVSS", "UNIT TAG": "nM", "Qpatch IC50": 32}
{"BINDER": "F010301080 (VHH) VHH: EVQLVESGGGLVQPGGSLRLSCAASGMLFNANTQGWYRQAPGKQRELVAFIFWGGYVTYNDSVKGRFTISRDNAKRTMYLQMNSLKPEDSAIYYCSLSRYLGQGTLVTVSS", "UNIT TAG": "nM", "Qpatch IC50": 14}
{"BINDER": "F010301090 (VHH) VHH: EVQLVESGGGLVQPGGSLRLSCAASGMLFNANTQGWYRQAPGKQRELVAFIFSGGWTTYNDSVKGRFTISRDNAKRTMYLQMNSLKPEDSAIYYCSLSRYQGQGTLVTVSS", "UNIT TAG": "nM", "Qpatch IC50": 22}

(1) F010301129 (VHH) VHH: EVQLVESGGGLVQPGGSLRLSCAASGMLFNANTQGWYRQAPGKQRELVAFIFSGGWTNYNDSVKGRFTISRDNAKRTMYLQMNSLKPEDSAIYYCALSRYQGQGTLVTVSS
(2) F010301191 (VHH) VHH: EVQLVESGGGLVQPGGSLRLSCAASGMLFNRNTQGWYRQAPGKQRELVAFIFSGGWTNYNDSVKGRFTISRDNAKRTMYLQMNSLKPEDSAIYYCALSVYQGQGTLVTVSS
Parameter metric = Qpatch IC50. Return the lower-valued option from 1 and 2 . Let me know the label of the one you choose.
2
